Cited source for all entries: patent US20220387325A1

Assay: physchem
Conditions: 20 °C, water, thermodynamic from solid
reported endpoint: solubility at 1 h

Bench note: what solubility at 1 h did `C/C=C(\C)C(=O)O[C@H]1C[C@@H](OC(C)=O)[C@@]2(C(=O)OC)CO[C@H]3[C@@H](O)[C@@](C)([C@]45O[C@@]4(C)[C@H]4C[C@@H]5O[C@@H]5OC=C[C@@]54O)[C@H]4[C@]1(CO[C@]4(O)C(=O)OC)[C@@H]32` show?
≤ 100 µg/mL

---

Experiment: physchem
Conditions: 25 °C, water, thermodynamic from solid
reported endpoint: solubility at 1 h

Known solubility at 1 h results, listed for orientation:
compound: CC(=O)O[C@H]1C(=O)[C@@]2(C)[C@H]([C@H](OC(=O)c3ccccc3)[C@]3(O)C[C@H](OC(=O)[C@H](O)[C@@H](NC(=O)c4ccccc4)c4ccccc4)C(C)=C1C3(C)C)[C@]1(OC(C)=O)CO[C@@H]1C[C@@H]2O [paclitaxel]
solubility at 1 h: ≤ 0.01 mg/mL
//
compound: CC(=O)O[C@@]12CO[C@@H]1C[C@H](O)[C@@]1(C)C(=O)[C@H](O)C3=C(C)[C@@H](OC(=O)[C@H](O)[C@@H](NC(=O)OC(C)(C)C)c4ccccc4)C[C@@](O)([C@@H](OC(=O)c4ccccc4)[C@H]21)C3(C)C [docetaxel]
solubility at 1 h: ≤ 0.01 mg/mL

Next compound, solubility at 1 h to be filled in.
Bench note: what solubility at 1 h did CS(=O)(=O)OCCCCOS(C)(=O)=O [busulfan] show?
≤ 0.01 mg/mL
